attribute-measured: MIC (µM)
Give the value, in units of µM, as a plain number.

Report value: MIC, system: Klebsiella pneumoniae ATCC 700603, compound: NCCCC[C@H](NC(=O)CNC(=O)CNC(=O)[C@H](CCCN=C(N)N)NC(=O)[C@H](CS)NC(=O)[C@H](Cc1ccc(O)cc1)NC(=O)[C@H](Cc1c[nH]c2ccccc12)NC(=O)[C@H](CCCN=C(N)N)NC(=O)[C@H](Cc1c[nH]c2ccccc12)NC(=O)[C@H](Cc1cnc[nH]1)NC(=O)CNC(=O)CN)C(N)=O [GGHWRWYCRGGK]
11

----------
Tested on: Pseudomonas aeruginosa
assay-notes: ≥ marks a high value that may be exact or a test limit, other limits are often not marked, values filed in µg/mL are converted to µM
attribute-measured: MIC (µM)
Write the number in µM without appending the unit.

Supply measured MIC of CC[C@H](C)[C@H](NC(=O)[C@H](C)NC(=O)CNC(=O)[C@H](CCCCN)NC(=O)[C@@H](NC(=O)[C@H](CCCCN)NC(=O)[C@@H](NC(=O)[C@H](C)NC(=O)CNC(=O)[C@H](CCCCN)NC(=O)[C@H](Cc1c[nH]c2ccccc12)NC(=O)[C@H](CCCCN)NC(=O)[C@@H](NC(=O)[C@H](C)NC(=O)CNC(=O)[C@H](CCCCN)NC(=O)[C@@H](NC(=O)[C@@H](N)CCCCN)[C@@H](C)CC)[C@@H](C)CC)[C@@H](C)CC)[C@@H](C)CC)C(N)=O [KIKGAIKWKGAIKIKGAI] in your reply.
8.32

Please report the measured MIC for CSCC[C@@H]1NC(=O)[C@H](CC(C)C)NC(=O)[C@H](C)NC(=O)[C@H](CCCN=C(N)N)NC(=O)[C@H](Cc2ccccc2)NC(=O)[C@H](CC(C)C)NC(=O)CNC(=O)[C@H](CCCCN)NC(=O)[C@@H](NC(=O)[C@H](CCCN=C(N)N)NC(=O)[C@@H]2CCCN2C(=O)[C@@H](NC(=O)[C@H](CO)NC(=O)[C@H](Cc2ccc(O)cc2)NC(=O)[C@H](C)NC(=O)[C@@H](N)CCCCN)[C@@H](C)O)CSSC[C@@H](C(=O)N[C@@H](Cc2c[nH]c3ccccc23)C(=O)N[C@@H](CC(C)C)C(N)=O)NC1=O [KAYSTPRCKGLFRALMCWL]
22.3

----------
Below are MIC values measured for Staphylococcus aureus.
Response body: numeric value in µM, unit text excluded.

Complete the entry with MIC for CC[C@H](C)[C@H](NC(=O)[C@H](C)NC(=O)[C@H](CCCCN)NC(=O)[C@H](CC(C)C)NC(=O)[C@H](CCCCN)NC(=O)[C@@H](N)CC(C)C)C(=O)N[C@@H](C)C(=O)N[C@@H](C)C(=O)N[C@@H](CC(C)C)C(=O)N[C@@H](C)C(=O)N[C@@H](CCCCN)C(=O)N[C@@H](CCCCN)C(=O)N[C@@H](CCCCN)C(=O)N[C@@H](Cc1c[nH]c2ccccc12)C(N)=O [LKLKAIAALAKKKW]
15.2

Please give the documented MIC of CC[C@H](C)[C@H](NC(=O)[C@H](CCCCN)NC(=O)[C@H](C)NC(=O)CNC(=O)[C@@H](NC(=O)[C@H](CCCCN)NC(=O)[C@@H](NC(=O)[C@H](CCCCN)NC(=O)[C@H](C)NC(=O)CNC(=O)[C@H](Cc1c[nH]c2ccccc12)NC(=O)[C@H](CCCCN)NC(=O)[C@@H](NC(=O)[C@H](CCCCN)NC(=O)[C@H](C)NC(=O)CNC(=O)[C@@H](NC(=O)[C@@H](N)CCCCN)[C@@H](C)CC)[C@@H](C)CC)[C@@H](C)CC)[C@@H](C)CC)C(N)=O [KIGAKIKWGAKIKIGAKI]
4.16

Quick one: give measured MIC for CC[C@H](C)[C@H](N)C(=O)N[C@@H](CC(=O)O)C(=O)N[C@@H](Cc1c[nH]c2ccccc12)C(=O)N[C@@H](CCCCN)C(=O)N[C@@H](CCCCN)C(=O)N[C@@H](CC(C)C)C(=O)N[C@@H](CC(C)C)C(=O)N[C@@H](CC(=O)O)C(=O)N[C@@H](C)C(=O)N[C@@H](C)C(=O)N[C@@H](CCCCN)C(=O)N[C@@H](CCC(N)=O)C(=O)N[C@H](C(=O)N[C@@H](CC(C)C)C(N)=O)[C@@H](C)CC [IDWKKLLDAAKQIL]
11.4

Complete the entry with MIC for CC[C@H](C)[C@H](NC(=O)[C@H](CCCCN)NC(=O)CNC(=O)[C@H](Cc1c[nH]c2ccccc12)NC(=O)[C@H](CC(N)=O)NC(=O)[C@@H](N)CCCCN)C(=O)N[C@@H](CC(C)C)C(=O)N[C@@H](CCCCN)C(=O)N[C@@H](Cc1cnc[nH]1)C(=O)N[C@H](C(=O)N[C@H](C(=O)N[C@@H](CCCCN)C(N)=O)[C@@H](C)CC)[C@@H](C)CC [KNWGKILKHIIK]
76.7

Look up and report measured MIC for this entry: CC[C@H](C)[C@H](NC(=O)[C@@H](NC(=O)[C@H](CC(=O)O)NC(=O)[C@H](Cc1ccccc1)NC(=O)[C@H](CC(C)C)NC(=O)CN)C(C)C)C(=O)N[C@@H](C)C(=O)N[C@@H](CCCCN)C(=O)N[C@H](C(=O)N[C@@H](C)C(=O)N[C@@H](CO)C(=O)N[C@H](C(=O)N[C@H](C(=O)N[C@@H](CCCCN)C(=O)N[C@@H](CCCCN)C(=O)N[C@@H](CC(C)C)C(N)=O)[C@@H](C)CC)C(C)C)C(C)C [GLFDVIAKVASVIKKL]
3.53

Supply recorded MIC for CC[C@H](C)[C@H](NC(=O)[C@H](Cc1cnc[nH]1)NC(=O)[C@@H](NC(=O)[C@@H](NC(=O)[C@H](CCCCN)NC(=O)[C@H](CCCN=C(N)N)NC(=O)[C@@H](NC(=O)[C@@H](NC(=O)[C@H](CCCN=C(N)N)NC(=O)[C@H](CCCN=C(N)N)NC(=O)[C@@H](N)CC(C)C)[C@@H](C)CC)[C@@H](C)CC)[C@@H](C)CC)[C@@H](C)CC)C(=O)N[C@H](C(=O)N[C@@H](CCCCN)C(N)=O)[C@@H](C)CC [LRRIIRKIIHIIK] here.
5.98

Indicate its recorded MIC; the compound in question is CC(C)C[C@H](NC(=O)[C@H](CCCCN)NC(=O)[C@H](Cc1ccccc1)NC(=O)[C@@H](NC(=O)[C@H](CCCCN)NC(=O)CNC(=O)[C@H](CC(C)C)NC(=O)[C@@H](N)Cc1ccccc1)C(C)C)C(=O)N[C@@H](C)C(=O)N[C@@H](CO)C(=O)N[C@@H](CCCCN)C(=O)N[C@H](C(=O)N[C@@H](Cc1ccccc1)C(=O)N1CCC[C@H]1C(=O)N[C@@H](C)C(=O)N[C@H](C(=O)N[C@@H](Cc1ccccc1)C(=O)NCC(=O)N[C@@H](CCCCN)C(=O)N[C@H](C(=O)O)C(C)C)C(C)C)C(C)C [FLGKVFKLASKVFPAVFGKV]
14.7

// fetch MIC given entry CC(C)C[C@H](NC(=O)[C@H](CC(=O)O)NC(=O)[C@H](CCCCN)NC(=O)[C@@H](N)Cc1ccccc1)C(=O)NCC(=O)N[C@@H](CCC(=O)O)C(=O)N[C@@H](CCC(=O)O)C(=O)N[C@@H](CC(N)=O)C(=O)N[C@@H](Cc1ccccc1)C(=O)N[C@@H](CCCCN)C(=O)O [FKDLGEENFK]
2450

Determine its reported MIC: CC[C@H](C)[C@H](NC(=O)[C@@H](N)CCCCN)C(=O)N[C@@H](C)C(=O)N[C@@H](CC(C)C)C(=O)N[C@@H](CCCCN)C(=O)N[C@@H](C)C(=O)N[C@@H](CC(C)C)C(=O)N[C@@H](CCCCN)C(=O)N[C@@H](C)C(=O)N[C@@H](CC(C)C)C(=O)N[C@@H](CCCCN)C(=O)N[C@@H](C)C(=O)N[C@@H](CC(C)C)C(=O)NCC(=O)N[C@@H](CCCCN)C(=O)N[C@@H](C)C(=O)N[C@@H](CC(C)C)C(=O)N[C@@H](CCCCN)C(=O)N[C@@H](C)C(=O)N[C@@H](CC(C)C)C(N)=O [KIALKALKALKALGKALKAL]
2.83

----------
System: Escherichia coli
attribute-measured: MIC (µM)
Entry rule: numbers only, all in µM.

Note MIC for the molecule shown: CC[C@H](C)[C@H](NC(=O)[C@@H](N)CCCCN)C(=O)N[C@@H](C)C(=O)N[C@@H](CC(C)C)C(=O)N[C@@H](CCCCN)C(=O)N[C@@H](C)C(=O)N[C@@H](CC(C)C)C(=O)N[C@@H](CCCCN)C(=O)N[C@@H](C)C(=O)N[C@@H](CC(C)C)C(=O)N[C@@H](CCCCN)C(=O)N[C@@H](C)C(=O)N[C@@H](CC(C)C)C(=O)NCC(=O)N[C@@H](CCCCN)C(=O)N[C@@H](C)C(=O)N[C@@H](CC(C)C)C(=O)N[C@@H](CCCCN)C(=O)N[C@@H](C)C(=O)N[C@@H](CC(C)C)C(N)=O [KIALKALKALKALGKALKAL]
32

Origin of values: DBAASP
